- TARGET_SYSTEM: Cav1.2 (Homo sapiens)
- Construct: expressed in transfected cells; host or cells: HEK293 cell line (Xia, et al., 2004) also expressing Kir2.3
- ASSAY_EXPLANATION: Calcium channel block, FLIPR TETRA fluorescence assay in HEK293 cells expressing L-type calcium channels
- Assay type: cell-based
- MEASUREMENT_CONDITIONS: pH 7.2; 3 μm compound; 25 mM potassium; read-out: FLIPRIETRA Cav1.2 % Inhibition 3 μm
OBSERVATION_TYPE: inhibition at 30 min, 3 μM (%)
Number only, in %; omit the unit.

Examples with their reported inhibition at 30 min, 3 μM follow.
> print(dat)
                                   compound  experimental.result
1  C=Cc1ccccc1C1C(C(=O)OC)=C(C)NC(C)=C1C(=O)OC                   78
2  C=CCOC(=O)C1=C(C)NC(C)=C(C(=O)OCC=C)C1c1cccc([N+](=O)[O-])c1                   82
3  COC(=O)C1=C(C)NC(C)=C(C(=O)OC)C1c1ccc(Cl)c(Cl)c1                   77

In the following, a different compound is considered.
Q: Which inhibition at 30 min, 3 μM is reported for this compound? COc1ccccc1NC(=O)C1=C(C)NC(SC)=C(C#N)C1c1ccccc1Cl (centres unmarked)
A: 35

* * *

- TARGET_SYSTEM: Cav1.2 (Homo sapiens, UniProt Q13936)
- Construct: expressed in transfected cells; host or cells: HEK293 cell line (Xia, et al., 2004) also expressing Kir2.3
- Sequence (Q13936 whole entry): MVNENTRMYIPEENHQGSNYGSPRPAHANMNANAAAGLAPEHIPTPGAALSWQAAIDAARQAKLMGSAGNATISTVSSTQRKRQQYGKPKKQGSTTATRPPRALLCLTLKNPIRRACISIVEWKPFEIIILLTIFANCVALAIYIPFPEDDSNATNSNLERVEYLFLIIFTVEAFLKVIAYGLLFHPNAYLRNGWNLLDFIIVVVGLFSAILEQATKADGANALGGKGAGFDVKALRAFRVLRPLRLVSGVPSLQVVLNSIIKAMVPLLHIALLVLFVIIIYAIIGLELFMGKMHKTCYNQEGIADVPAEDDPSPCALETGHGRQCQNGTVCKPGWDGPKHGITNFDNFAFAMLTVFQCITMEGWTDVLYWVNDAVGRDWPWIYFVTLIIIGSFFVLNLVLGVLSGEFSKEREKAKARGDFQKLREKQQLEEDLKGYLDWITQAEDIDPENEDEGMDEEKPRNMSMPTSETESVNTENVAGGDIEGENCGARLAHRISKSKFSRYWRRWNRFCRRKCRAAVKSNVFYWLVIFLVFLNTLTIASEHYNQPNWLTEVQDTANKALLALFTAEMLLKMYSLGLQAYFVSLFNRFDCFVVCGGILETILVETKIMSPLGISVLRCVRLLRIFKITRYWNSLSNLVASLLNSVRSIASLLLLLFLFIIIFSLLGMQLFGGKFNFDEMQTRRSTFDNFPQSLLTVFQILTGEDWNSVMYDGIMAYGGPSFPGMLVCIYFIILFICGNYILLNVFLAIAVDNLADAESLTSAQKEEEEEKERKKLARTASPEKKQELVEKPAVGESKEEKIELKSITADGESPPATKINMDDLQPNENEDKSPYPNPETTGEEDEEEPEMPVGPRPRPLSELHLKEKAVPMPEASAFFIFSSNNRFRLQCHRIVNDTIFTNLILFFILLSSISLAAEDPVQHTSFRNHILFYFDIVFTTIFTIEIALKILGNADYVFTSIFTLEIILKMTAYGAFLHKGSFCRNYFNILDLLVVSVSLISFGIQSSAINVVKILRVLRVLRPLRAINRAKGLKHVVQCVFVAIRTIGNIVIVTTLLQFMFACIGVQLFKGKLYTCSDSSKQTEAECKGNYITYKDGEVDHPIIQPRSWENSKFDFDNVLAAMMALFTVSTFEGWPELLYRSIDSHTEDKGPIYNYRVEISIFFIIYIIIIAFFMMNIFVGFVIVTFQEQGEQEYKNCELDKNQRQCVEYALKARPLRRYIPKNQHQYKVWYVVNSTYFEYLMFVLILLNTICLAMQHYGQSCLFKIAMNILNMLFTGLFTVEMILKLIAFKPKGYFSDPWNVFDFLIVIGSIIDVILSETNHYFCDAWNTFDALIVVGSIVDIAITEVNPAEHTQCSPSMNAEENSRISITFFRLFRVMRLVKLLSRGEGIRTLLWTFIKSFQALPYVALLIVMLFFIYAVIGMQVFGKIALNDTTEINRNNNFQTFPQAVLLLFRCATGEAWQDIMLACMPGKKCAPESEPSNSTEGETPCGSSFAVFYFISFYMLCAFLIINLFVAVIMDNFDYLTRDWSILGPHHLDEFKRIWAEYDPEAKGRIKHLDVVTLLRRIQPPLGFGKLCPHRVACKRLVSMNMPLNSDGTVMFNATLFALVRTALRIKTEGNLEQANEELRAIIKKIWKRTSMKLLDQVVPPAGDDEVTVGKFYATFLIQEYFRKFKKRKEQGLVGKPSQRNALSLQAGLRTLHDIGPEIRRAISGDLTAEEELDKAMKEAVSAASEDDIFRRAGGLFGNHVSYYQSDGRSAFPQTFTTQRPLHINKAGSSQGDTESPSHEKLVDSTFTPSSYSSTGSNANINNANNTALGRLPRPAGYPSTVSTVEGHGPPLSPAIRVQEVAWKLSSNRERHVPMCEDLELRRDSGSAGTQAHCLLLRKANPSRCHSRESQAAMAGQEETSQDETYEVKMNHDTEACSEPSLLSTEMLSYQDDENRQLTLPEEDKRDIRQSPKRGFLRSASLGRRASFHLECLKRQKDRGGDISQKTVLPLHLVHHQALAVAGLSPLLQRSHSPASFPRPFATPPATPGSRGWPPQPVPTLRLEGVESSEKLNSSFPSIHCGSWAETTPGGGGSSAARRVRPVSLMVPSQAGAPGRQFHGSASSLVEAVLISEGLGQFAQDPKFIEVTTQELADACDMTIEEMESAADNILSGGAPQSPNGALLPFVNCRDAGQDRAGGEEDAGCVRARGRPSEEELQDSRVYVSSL
- Sequence (P54289 25-946 partner limits assumed): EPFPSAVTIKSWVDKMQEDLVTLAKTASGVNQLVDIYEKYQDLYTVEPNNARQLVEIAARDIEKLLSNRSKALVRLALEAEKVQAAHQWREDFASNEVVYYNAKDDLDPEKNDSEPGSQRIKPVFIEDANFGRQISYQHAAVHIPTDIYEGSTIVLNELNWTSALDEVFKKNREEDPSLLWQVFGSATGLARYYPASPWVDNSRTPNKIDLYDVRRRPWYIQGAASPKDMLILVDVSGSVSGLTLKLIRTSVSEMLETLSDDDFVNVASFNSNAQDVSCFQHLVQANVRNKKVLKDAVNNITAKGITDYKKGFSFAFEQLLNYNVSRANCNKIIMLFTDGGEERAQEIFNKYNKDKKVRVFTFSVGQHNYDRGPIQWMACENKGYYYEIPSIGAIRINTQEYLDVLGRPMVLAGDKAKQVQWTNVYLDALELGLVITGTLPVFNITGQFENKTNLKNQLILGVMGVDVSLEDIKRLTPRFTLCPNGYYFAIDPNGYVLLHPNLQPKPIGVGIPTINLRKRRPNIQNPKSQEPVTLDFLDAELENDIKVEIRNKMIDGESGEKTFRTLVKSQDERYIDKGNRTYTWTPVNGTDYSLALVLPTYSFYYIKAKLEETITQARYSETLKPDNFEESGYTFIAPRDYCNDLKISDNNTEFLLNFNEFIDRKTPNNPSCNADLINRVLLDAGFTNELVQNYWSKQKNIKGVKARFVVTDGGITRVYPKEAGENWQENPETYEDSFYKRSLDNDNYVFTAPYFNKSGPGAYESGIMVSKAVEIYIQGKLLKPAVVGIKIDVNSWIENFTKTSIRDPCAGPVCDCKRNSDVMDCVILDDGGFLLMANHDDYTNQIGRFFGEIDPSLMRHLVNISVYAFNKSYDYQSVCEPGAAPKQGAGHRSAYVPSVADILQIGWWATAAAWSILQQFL
- Sequence (P54289 947-1103 partner limits assumed): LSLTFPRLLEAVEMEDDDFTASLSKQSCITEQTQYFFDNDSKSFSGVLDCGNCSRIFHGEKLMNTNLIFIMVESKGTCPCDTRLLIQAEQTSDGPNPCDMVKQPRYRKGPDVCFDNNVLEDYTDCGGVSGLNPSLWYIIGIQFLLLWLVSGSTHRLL
- Sequence (Q08289 whole entry partner): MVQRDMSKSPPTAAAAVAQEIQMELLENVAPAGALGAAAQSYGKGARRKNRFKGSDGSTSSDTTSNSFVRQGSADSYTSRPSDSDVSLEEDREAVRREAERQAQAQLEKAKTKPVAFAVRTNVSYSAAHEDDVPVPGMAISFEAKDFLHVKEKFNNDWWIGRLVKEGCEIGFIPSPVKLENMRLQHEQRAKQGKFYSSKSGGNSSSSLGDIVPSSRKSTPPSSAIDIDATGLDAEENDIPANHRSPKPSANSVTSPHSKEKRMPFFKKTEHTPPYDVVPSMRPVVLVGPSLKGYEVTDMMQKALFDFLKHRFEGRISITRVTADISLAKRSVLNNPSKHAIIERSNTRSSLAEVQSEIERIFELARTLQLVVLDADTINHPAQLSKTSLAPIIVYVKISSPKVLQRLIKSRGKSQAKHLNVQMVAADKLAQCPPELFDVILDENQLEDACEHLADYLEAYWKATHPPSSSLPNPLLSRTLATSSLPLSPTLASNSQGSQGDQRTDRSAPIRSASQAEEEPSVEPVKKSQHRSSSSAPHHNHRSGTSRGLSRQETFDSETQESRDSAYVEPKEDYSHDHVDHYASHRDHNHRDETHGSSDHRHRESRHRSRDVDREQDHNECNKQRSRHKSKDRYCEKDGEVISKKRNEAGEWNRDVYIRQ
- ASSAY_EXPLANATION: Calcium channel block, FLIPR TETRA fluorescence assay in HEK293 cells expressing L-type calcium channels
- Format: cell-based
- MEASUREMENT_CONDITIONS: pH 7.2; 0.3 μM compound; 25 mM potassium; read-out: FLIPRIETRA Cav1.2 % Inhibition 0.3 μM
Measured inhibition at 30 min, 0.3 μM, listed per entry for reference.
Report the figure in % without appending any unit label.

Q: Need inhibition at 30 min, 0.3 μM, item COC(=O)C1=C(C)NC(C)=C(C(=O)OC)C1c1cccc(Cl)c1Cl
A: 73

Q: Please answer likewise for CCOC(=O)C1=C(C)NC(C)=C(C(=O)OCC)C1c1ccc([N+](=O)[O-])cc1
A: 25

Q: Request: CCOc1ccccc1C1C(C#N)=C(SC)NC(C)=C1C(=O)Nc1ccccc1 (centres unmarked)
A: 4

Q: Ok, now CCOC(=O)C1=C(C)NC(C)=C(C(=O)OC(C)C)C1c1ccc([N+](=O)[O-])cc1 (centres unmarked)
A: 28

Q: Moving on to the next compound: CCSC1=C(C#N)C(c2ccccc2Cl)C(C(=O)Nc2ccccc2OC)=C(C)N1 (centres unmarked)
A: 41

* * *

- TARGET_SYSTEM: Cav1.2 (Homo sapiens, UniProt Q13936)
- Construct: expressed in transfected cells; host or cells: HEK293 cell line (Xia, et al., 2004) also expressing Kir2.3
- ASSAY_EXPLANATION: Calcium channel block, FLIPR TETRA fluorescence assay in HEK293 cells expressing L-type calcium channels
- Type: cell-based
- MEASUREMENT_CONDITIONS: pH 7.2; 3 μm compound; 25 mM potassium; read-out: FLIPRIETRA Cav1.2 % Inhibition 3 μm
OBSERVATION_TYPE: inhibition at 30 min, 3 μM (%)
Numeric only. Scale: %

> print(dat)
                                   molecule            observation.type  units.of.measure  experimental.result
1  CCOC(=O)C1=C(C)NC(C)=C(C(=O)OC(C)C)C1c1ccc([N+](=O)[O-])cc1 (stereo not shown)  inhibition at 30 min, 3 μM                 %                   63
2  CCSC1=C(C#N)C(c2ccccc2Cl)C(C(=O)Nc2ccccc2OC)=C(C)N1 (stereo not shown)  inhibition at 30 min, 3 μM                 %                   92
3  COC(=O)C1=C(C)NC(C)=C(C(=O)OC)C1c1cccc2ccccc12  inhibition at 30 min, 3 μM                 %                   94

Q: Name the reported inhibition at 30 min, 3 μM value associated with the molecule CCOc1ccccc1C1C(C#N)=C(SC)NC(C)=C1C(=O)Nc1ccccc1 (stereo not shown)
A: 55
